# protocol text: Solubility of tolvaptan in Britton-Robinson buffer and purified water
# Type: physicochemical
# condition label: thermodynamic from solid; purified water, 25° C.±1° C., shaken 4 hours
experimental endpoint: solubility thermodynamic at 4 h (µg/mL)
Could you give me the number in µg/mL? Just the number is fine.

Request: Fill in reported solubility thermodynamic at 4 h for this entry: Cc1ccccc1C(=O)Nc1ccc(C(=O)N2CCCC(O)c3cc(Cl)ccc32)c(C)c1 (stereo not shown) [tolvaptan, Tolvaptan]
Result: 0.2

====

# protocol text: Solubility of tolvaptan in Britton-Robinson buffer and purified water
# Type: physicochemical
# condition label: aqueous buffer, thermodynamic from solid; Britton-Robinson buffer pH 7, 25° C.±1° C., shaken 4 hours
experimental endpoint: solubility thermodynamic at 4 h (µg/mL)
Could you give me the number in µg/mL? Just the number is fine.

Request: Fill in reported solubility thermodynamic at 4 h for this entry: Cc1ccccc1C(=O)Nc1ccc(C(=O)N2CCCC(O)c3cc(Cl)ccc32)c(C)c1 (stereo not shown)
Result: 0.3

====

# protocol text: Solubility of tolvaptan in Britton-Robinson buffer and purified water
# Type: physicochemical
# condition label: aqueous buffer, thermodynamic from solid; Britton-Robinson buffer pH 2, 25° C.±1° C., shaken 4 hours
# Protocol: Tolvaptan was added in excess to Britton-Robinson buffer (pH 2, pH 7, or pH 12) or purified water, and then shaken at 25° C.±1° C. for 4 hours. Each solution was filtered through a filter, and then, using HPLC, the solubility of tolvaptan was quantified by absolute calibration.
experimental endpoint: solubility thermodynamic at 4 h

Request: Fill in reported solubility thermodynamic at 4 h for this entry: Cc1ccccc1C(=O)Nc1ccc(C(=O)N2CCCC(O)c3cc(Cl)ccc32)c(C)c1 (stereo not shown)
Result: 0.2 µg/mL

====

# protocol text: Solubility of salt of compound (1) in water at 37° C.
# Assay type: physicochemical
# condition label: thermodynamic from solid, shaking at 37° C. for 30 minutes
experimental endpoint: solubility at 30 min

Below: 4 compounds and their reported solubility at 30 min.
• Cc1ccccc1C(=O)Nc1ccc(C(=O)N2CCCC(OP(=O)([O-])O)c3cc(Cl)ccc32)c(C)c1.[K+] (centres unmarked) = > 1000 µg/mL
• Cc1ccccc1C(=O)Nc1ccc(C(=O)N2CCCC(OP(=O)([O-])O)c3cc(Cl)ccc32)c(C)c1.[Na+] (centres unmarked) = > 1000 µg/mL
• Cc1ccccc1C(=O)Nc1ccc(C(=O)N2CCCC(OP(=O)([O-])[O-])c3cc(Cl)ccc32)c(C)c1.[Mg+2] (centres unmarked) = > 1000 µg/mL
• Cc1ccccc1C(=O)Nc1ccc(C(=O)N2CCCC(OP(=O)(O)O)c3cc(Cl)ccc32)c(C)c1 (centres unmarked) = > 1000 µg/mL

Pending compound:
Request: Fill in reported solubility at 30 min for this entry: COP(=O)(NCCO)OC1CCCN(C(=O)c2ccc(NC(=O)c3ccccc3C)cc2C)c2ccc(Cl)cc21 (centres unmarked)
Result: > 1000 µg/mL

====

# protocol text: Solubility of compound (1b) in buffer solution (room temperature)
# Format: physicochemical
# condition label: Tris/HCl buffer, pH 8, aqueous buffer, thermodynamic from solid; Tris buffer (100 mM), pH before dissolution 8, pH after dissolution 2.9, room temperature, shaken 16 days
experimental endpoint: solubility thermodynamic at 16 days (µg/mL)
Could you give me the number in µg/mL? Just the number is fine.

Request: Fill in reported solubility thermodynamic at 16 days for this entry: Cc1ccccc1C(=O)Nc1ccc(C(=O)N2CCCC(OP(=O)(O)O)c3cc(Cl)ccc32)c(C)c1 (stereo not shown)
Result: 7400

====

# protocol text: Solubility of compound (1b) in buffer solution (room temperature)
# Type: physicochemical
# condition label: pH 7, aqueous buffer, thermodynamic from solid; Sodium phosphate buffer (100 mM), pH before dissolution 7, pH after dissolution 3.1, room temperature, shaken 16 days
experimental endpoint: solubility thermodynamic at 16 days
# number then unit; no other words

Request: Fill in reported solubility thermodynamic at 16 days for this entry: Cc1ccccc1C(=O)Nc1ccc(C(=O)N2CCCC(OP(=O)(O)O)c3cc(Cl)ccc32)c(C)c1 (stereo not shown)
Result: 7600 µg/mL
